# system under test: CD71 on SK-BR-3 cells (human, UniProt P02786 1-760)
# Sequence (P02786 whole entry): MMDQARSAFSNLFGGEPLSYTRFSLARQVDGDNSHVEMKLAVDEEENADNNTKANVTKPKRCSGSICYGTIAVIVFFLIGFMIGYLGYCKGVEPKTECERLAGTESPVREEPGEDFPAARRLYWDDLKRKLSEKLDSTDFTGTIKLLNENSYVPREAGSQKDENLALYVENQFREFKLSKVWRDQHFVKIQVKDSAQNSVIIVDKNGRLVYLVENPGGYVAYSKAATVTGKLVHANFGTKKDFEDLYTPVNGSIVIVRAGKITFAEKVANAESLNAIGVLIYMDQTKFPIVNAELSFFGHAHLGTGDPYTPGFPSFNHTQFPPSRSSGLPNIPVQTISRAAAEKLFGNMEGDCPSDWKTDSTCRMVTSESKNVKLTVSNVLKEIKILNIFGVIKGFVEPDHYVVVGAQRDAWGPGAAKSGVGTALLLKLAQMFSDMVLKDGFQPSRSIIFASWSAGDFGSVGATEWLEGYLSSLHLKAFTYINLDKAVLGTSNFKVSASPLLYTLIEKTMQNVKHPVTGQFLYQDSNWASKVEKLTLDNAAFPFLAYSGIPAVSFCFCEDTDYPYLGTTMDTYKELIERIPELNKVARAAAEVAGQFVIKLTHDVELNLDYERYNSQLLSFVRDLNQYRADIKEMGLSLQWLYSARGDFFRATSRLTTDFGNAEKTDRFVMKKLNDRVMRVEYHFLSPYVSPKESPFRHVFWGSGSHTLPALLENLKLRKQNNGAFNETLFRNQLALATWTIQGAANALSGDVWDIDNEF
# assay details: cell-based or functional assay
endpoint label: IC50, SK-BR3 viability, MMAF conjugate, with 0.6 uM holo-human transferrin (nM)
Numbers only here, please. The scale is nM.

Here is how some binders turned out for IC50, SK-BR3 viability, MMAF conjugate, with 0.6 uM holo-human transferrin.
binder	endpoint result
SEQ ID NO 45 (designed binder, FN3 domain) MLPAPKNLVVSRVTEDSARLSWTAPDAAFDSFAIYYLESYPEGEAIVLTVPGSERSYDLTGLKPGTEYWVGIDGVKGGTWSSPLSAIFTT	0.9
SEQ ID NO 34 (designed binder, FN3 domain) MLPAPKNLVVSRVTEDSARLSWTAPDAAFDSFAITYIEWWDVGEAIGLKVPGSERSYDLTGLKPGTEYRVHIQGVKGGNNSYPLDALFTT	196
SEQ ID NO 62 (designed binder, VC-MMAF conjugate (site not given)) MLPAPKNLVVSRVTEDSARLSWTAPDAAFDSFPILYLELNHHGEEIVLTVPGSERSYDLTGLKPGTEYWVYIFGVKGGMYSAPLSAIFTTGG	0.6

Read the next record carefully.
INPUT: I would be grateful if you could share the reported IC50, SK-BR3 viability, MMAF conjugate, with 0.6 uM holo-human transferrin for SEQ ID NO 54 (designed binder, FN3 domain) MLPAPKNLVVSRVTEDSARLSWTAPDAAFDSFQILYQENAFEGEAIVLTVPGSERSYDLTGLKPGTEYWVYIYGVKGGYPSVPLSAIFTT .
OUTPUT: 5
